Compiled from multiple publications: pIC50 readings for Protein kinase C theta type (Homo sapiens, UniProt Q04759).
Keep in mind that pIC50 stands for -log10 of concentration in molar terms.

These recorded examples may help you get a feel for the data.
- SMILES INPUT: "N#Cc1cnc2sc(-c3ccc(C=O)cc3)cc2c1Nc1ccc2[nH]ccc2c1"
  pIC50: 7.29
- SMILES INPUT: "c1ccc(-c2cnc3ccc(NCCCN4CCOCC4)nn23)cc1"
  pIC50: 4.77
- SMILES INPUT: "C=C(c1ccccc1)c1cc2c(Nc3ccc4[nH]ccc4c3)c(C#N)cnc2s1"
  pIC50: 5.98
- SMILES INPUT: "N#Cc1cnc2sc(C(=O)Nc3cccnc3)cc2c1Nc1ccc2[nH]ccc2c1"
  pIC50: 5.78
- SMILES INPUT: "COCc1ccccc1-c1cc2c(Nc3ccc4[nH]ccc4c3C)c(C#N)cnc2s1"
  pIC50: 6.75

May I ask what pIC50 has been recorded for CCCOc1c(CN(C)C)cc(C)cc1-c1cc2c(Nc3ccc4[nH]ccc4c3C)c(C#N)cnc2s1 ?
7.54

Entry under review: CCc1c(Nc2c(C#N)cnc3sc(-c4ccccc4)cc23)ccc2[nH]ccc12 . Reported pIC50?
6.08

Requested field: pIC50. Item: Cc1c(Nc2c(C#N)cnc3sc(-c4cccc(NS(C)(=O)=O)c4)cc23)ccc2[nH]ccc12
7.64

Name the reported pIC50 value associated with the compound Cc1cc(Nc2ncc(F)c(NC3CC(C)(C)N(C)C(C)(C)C3)n2)ccc1N1CCN(C)CC1
7.52

Entry CN1C(C)(C)CC(Nc2nc(Nc3ccc(OC(F)(F)F)c(-c4cccnc4)c3)ncc2F)CC1(C)C : reported pIC50 = ?
7.28

So what's the measured pIC50 for this one? Cc1c(Nc2c(C#N)cnc3sc(C4CCNCC4)cc23)ccc2[nH]ccc12
7.15

Record request: pIC50 value, item CN1CCN(c2ccc(Nc3ncc(C(F)(F)F)c(NC4CC(C)(C)N(C)C(C)(C)C4)n3)cc2C#N)CC1
9.09

Given the entry CN1C(C)(C)CC(Nc2nc(Nc3ccc(N4CCOCC4)c(OC(F)F)c3)ncc2F)CC1(C)C , report its measured pIC50.
8.90
